protocol.description: solvent given as SMILES
reported.conditions: in CCO
readout.kind: emission maximum (nm)
Provide only the numeric value, understood in nm.

Check out these entries, answers already filled in.
| molecule | unit.info | emission maximum |
| --- | --- | --- |
| CC(=O)Nc1ccc(/C=C2\OC(=O)c3cc(N)ccc32)cc1 | nm | 485.91 |
| O=P1(c2ccccc2)c2ccccc2-c2sc3ccccc3c21 (stereo unspecified) | nm | 434 |
| CCN(CC)c1ccc2cc(C#N)/c(=N\C(C)=O)oc2c1 | nm | 462 |
| CC1=C(Cc2ccccc2)C(C)=[N+]2C1=C(C)c1c(C)c(-c3csc(N4CCOCC4)n3)c(C)n1[B-]2(F)F | nm | 538 |
| O=C(N/N=C/c1ccccc1O)c1ccccc1 | nm | 429 |

Answer with the recorded emission maximum of "COc1cc2c(cc1F)c(=O)c1cc(F)c(OC)cc1n2C(C)C" only. 425

Answer with the recorded emission maximum of "Cc1cc(=O)oc2ccc3ccc(-c4cn(Cc5ccccc5)nn4)cc3c12" only. 420

Answer with the recorded emission maximum of "COc1ccc(C(=O)/C=C/c2ccc(N(C)C)cc2)cc1OC" only. 533

Answer with the recorded emission maximum of "O=C(/C=C/c1ccc(O)c(O)c1)O[C@H](Cc1ccc(O)c(O)c1)C(=O)O" only. 417

Answer with the recorded emission maximum of "COCCOCCOCCOc1cc(C=O)c(OCCOCCOCCOC)cc1C=O" only. 465

Answer with the recorded emission maximum of "O=C(O)CCNc1cccc2ccccc12" only. 417

----------
protocol.description: solvent given as SMILES
reported.conditions: in O
readout.kind: emission maximum (nm)
Provide only the numeric value, understood in nm.

Check out these entries, answers already filled in.
| mol | emission maximum, nm |
| --- | --- |
| CC/[NH+]=c1\cc2oc3cc(NCCC(=O)NCC(=O)OC)c4ccccc4c3nc-2cc1C | 652 |
| COc1ccc2c(=O)c3c([nH]c2c1)-c1cc(Cl)ccc1NC3(C)C | 555 |
| CN1C(=O)/C(=C/c2ccncc2)N=C1/C=C/c1ccccc1 | 560 |

Answer with the recorded emission maximum of "Fc1ccc(-c2nc3n(c2-c2ccncc2)CCS3)cc1" only. 415

Answer with the recorded emission maximum of "CCCCn1c(-c2ccc(-c3ccc(-c4ccc(-c5n(CCCC)c6cc(C)ccc6[n+]5CCCC)cc4)cc3)cc2)[n+](CCCC)c2ccc(C)cc21" only. 397

Answer with the recorded emission maximum of "Nc1n[n+]([O-])c2ccccc2[n+]1[O-]" only. 545

----------
protocol.description: solvent given as SMILES
reported.conditions: in CC(C)=O
# emission maximum annotations
Provide only the numeric value, understood in nm.

Check out these entries, answers already filled in.
| molecule | emission maximum / nm |
| --- | --- |
| Cc1ccc(-c2cc(-c3ccc(N(C)C)cc3)c3c(N)nc(N4CCCC4)c(C#N)c3n2)cc1 | 511 |
| CN(C)c1ccc(/C=C2\CCCC2=O)cc1 | 474 |
| CN(C)c1cc(C#N)c(N(C)C)c(C#N)c1 | 524.93 |
| O=S1(=O)c2ccc(-c3ccc(-n4c5ccccc5c5ccccc54)cc3)cc2C2(c3ccccc3-c3ccccc32)c2cc(-c3ccc(-n4c5ccccc5c5ccccc54)cc3)ccc21 | 443.88 |
| CC(=O)O[B-]1(OC(C)=O)OC(/C=C/c2ccc(C)cc2)=CC(/C=C/c2ccc(C)cc2)=[O+]1 | 489 |

Answer with the recorded emission maximum of "CCC1(CC)c2ccccc2-c2c1c1c(c3c2C(CC)(CC)c2cc(B(c4c(C)cc(C)cc4C)c4c(C)cc(C)cc4C)ccc2-3)C(CC)(CC)c2ccccc2-1" only. 395

Answer with the recorded emission maximum of "CC1=CC(C)=[N+]2C1=C(c1ccc(N(C)C)cc1)c1c(C)cc(C)n1[B-]2(F)F" only. 510

Answer with the recorded emission maximum of "CCCCCCCCCCCCC1(CCCCCCCCCCCC)c2cc(-c3ccc(C=C4C(=O)c5ccccc5C4=O)cc3)ccc2-c2ccc(-c3ccc(C=C4C(=O)c5ccccc5C4=O)cc3)cc21" only. 566
